This collection of values is drawn from PubChem BioAssay (NCI).

System: PC-3 prostate
Experiment: NCI tumour cell line growth inhibition, 48 h

MOLECULE: COc1ccc(CNc2c3ccccc3nc3ccc(OC)cc23)cc1
SYSTEM_NAME: PC-3 prostate
GI50: 2.8 µM

MOLECULE: CC1(C)CC(n2cnc(-c3ccc(F)cc3)c2-c2ccnc(N)n2)CC(C)(C)N1
SYSTEM_NAME: PC-3 prostate
GI50: > 25 µM

MOLECULE: O=S(=O)(c1ccc(N=C2NN=C(c3c[nH]c4ccccc34)CS2)cc1)N1CCOCC1
SYSTEM_NAME: PC-3 prostate
GI50: 10.3 µM

MOLECULE: COc1ccc(-c2ccc(/C=N/n3c(COc4ccc(Cl)cc4Cl)nn(CN4CCN(C)CC4)c3=S)o2)c([N+](=O)[O-])c1
SYSTEM_NAME: PC-3 prostate
GI50: 17.6 µM

MOLECULE: O=CN1N=C(c2ccc(Cl)cc2)CC1c1cccc(Nc2ccnc3cc(Cl)ccc23)c1 (configuration not stated)
SYSTEM_NAME: PC-3 prostate
GI50: 1.69 µM

MOLECULE: COC(=O)c1c2c(c(C)[n+]([O-])c1C)C(=O)C=C(NCc1ccc(OC)cc1)C2=O
SYSTEM_NAME: PC-3 prostate
GI50: 1.02 µM

MOLECULE: Cc1cc(-c2nnc(N)nc2-c2ccc(F)cc2)cc(Cl)n1
SYSTEM_NAME: PC-3 prostate
GI50: 76.9 µM
